- EXPERIMENTAL PROTOCOL: Half life in BALB/c mouse at 5 mg/kg, po measured upto 24 hrs by LC-MS/MS analysis
- STATED CONDITIONS: in vivo
Kindly supply the reported half-life at 24 h values for the records listed here.
Give bare numbers, in h.

Parameter requested: half-life at 24 h. Apply to each item below.
1. C[C@H](NC(=O)c1c(-c2ccsc2)nnn1Cc1ccc(C(F)(F)F)cc1)c1ccc(C(=O)O)cc1
2. C/C=C/c1nnn(Cc2ccc(C(F)(F)F)cc2)c1C(=O)N[C@@H](C)c1ccc(C(=O)O)cc1

1: 4.6; 2: 4.7

###

- EXPERIMENTAL PROTOCOL: Metabolic stability in human liver microsomes assessed as compound remaining at 10 uM incubated for 1 hr
Kindly supply the reported remaining at 1 h, 10 µM values for the records listed here.
One number for each entry, in %.

MOLECULE SMILES | remaining at 1 h, 10 µM / %
C[C@H](NC(=O)c1c(-c2ccccc2)nnn1Cc1ccc(C(F)(F)F)cc1)c1ccc(C(=O)O)cc1 | 84.9
C[C@H](NC(=O)c1c(-c2ccoc2)nnn1Cc1ccc(C(F)(F)F)cc1)c1ccc(C(=O)O)cc1 | 87.9
C[C@H](NC(=O)c1c(-c2ccsc2)nnn1Cc1ccc(C(F)(F)F)cc1)c1ccc(C(=O)O)cc1 | 106

Kindly review the next molecule as well.
Give me measured remaining at 1 h, 10 µM, please, for this molecule: C/C=C/c1nnn(Cc2ccc(C(F)(F)F)cc2)c1C(=O)N[C@@H](C)c1ccc(C(=O)O)cc1
100
